- assayed.system: Cyclic GMP-AMP synthase (Homo sapiens)
- Sequence (Q8N884 whole entry): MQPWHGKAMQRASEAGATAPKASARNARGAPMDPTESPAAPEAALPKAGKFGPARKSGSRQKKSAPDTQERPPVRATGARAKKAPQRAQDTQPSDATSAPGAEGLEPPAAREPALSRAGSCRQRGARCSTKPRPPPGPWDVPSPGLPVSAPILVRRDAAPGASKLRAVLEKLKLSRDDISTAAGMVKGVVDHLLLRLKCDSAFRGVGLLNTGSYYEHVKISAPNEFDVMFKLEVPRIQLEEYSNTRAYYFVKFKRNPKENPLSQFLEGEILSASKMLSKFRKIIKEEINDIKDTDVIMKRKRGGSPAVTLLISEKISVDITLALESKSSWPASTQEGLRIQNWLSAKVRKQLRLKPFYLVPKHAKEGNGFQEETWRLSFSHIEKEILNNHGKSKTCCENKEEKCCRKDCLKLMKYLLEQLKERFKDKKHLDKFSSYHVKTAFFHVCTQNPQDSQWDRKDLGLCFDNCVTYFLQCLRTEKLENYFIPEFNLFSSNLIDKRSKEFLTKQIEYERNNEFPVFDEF
quantity.kind: IC50

smiles.repr | result
Cc1ccn2c(C(=O)C(=O)c3ccccc3)c(-c3ccccc3)nc2c1 | 2.1 nM
